Origin of values: patent US8212014B2

- protocol_description: FRET between s or v in 35-mer DNA and FAM-y or FAM-hx-y in 17-mer RNA (DNA/RNA duplexes)
- Format: physicochemical
- condition_summary: 20° C.
[s] = deoxynucleotide carrying the publication's artificial base s, incorporated via its phosphoramidite; [v] = deoxynucleotide carrying the publication's artificial base v, incorporated via its phosphoramidite
property: FRET in duplex with 17-mer RNA incorporating FAM-y or FAM-hx-y

substance	result
DNA35s1: 35-mer DNA (SEQ ID NO: 20) in which N1N2N3 is CTs (DNA CACTNCTCGGGATTCCCTATAGTGAGTCGTATTAT; DNA, [s] at 5, backbone, methylation of C and the base at N not given here)	FRET occurred
DNA35v1: 35-mer DNA (SEQ ID NO: 20) in which N1N2N3 is CTv (DNA CACTNCTCGGGATTCCCTATAGTGAGTCGTATTAT; DNA, [v] at 5, backbone, methylation of C and the base at N not given here)	FRET occurred

----------
- protocol_description: Steady-state fluorescence emission of single-stranded DNAs containing s or v
- Format: physicochemical
- condition_summary: single-stranded 35-mer DNA with two artificial bases
[s] = deoxynucleotide carrying the publication's artificial base s, incorporated via its phosphoramidite; [v] = deoxynucleotide carrying the publication's artificial base v, incorporated via its phosphoramidite
property: fluorescence intensity of single-stranded DNA

substance	result
DNA35s2a: 35-mer DNA (SEQ ID NO: 20) in which N1N2N3 is Css (DNA CACNNCTCGGGATTCCCTATAGTGAGTCGTATTAT; DNA, [s] at 4, 5, backbone, methylation of C and the base at N not given here)	significantly decreased
DNA35v2b: 35-mer DNA (SEQ ID NO: 20) in which N1N2N3 is vTv (DNA CANTNCTCGGGATTCCCTATAGTGAGTCGTATTAT; DNA, [v] at 3, 5, backbone, methylation of C and the base at N not given here)	no significant decrease
DNA35s2b: 35-mer DNA (SEQ ID NO: 20) in which N1N2N3 is sTs (DNA CANTNCTCGGGATTCCCTATAGTGAGTCGTATTAT; DNA, [s] at 3, 5, backbone, methylation of C and the base at N not given here)	no significant decrease
DNA35v2a: 35-mer DNA (SEQ ID NO: 20) in which N1N2N3 is Cvv (DNA CACNNCTCGGGATTCCCTATAGTGAGTCGTATTAT; DNA, [v] at 4, 5, backbone, methylation of C and the base at N not given here)	significantly decreased
